Exercise: for every item that follows, state its recorded CC50 at 24 h.
experiment: in vitro; conditions: human, WI38 normal lung fibroblast cells, LD50 WI38, WI38 normal lung fibroblast line, MTT, 24 hours with peptide
No end group written: not given here.
Give bare numbers, in µg/mL.

Dear colleague, could you send me CC50 at 24 h for each of the items below? Thanks.
1. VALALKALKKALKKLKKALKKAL-OH [HECATE AC V]
2. VAKLLAKLAKKLL-NH2 [P48]

Key:
1: 190; 2: 41

* * *

test system: Pseudomonas aeruginosa H187; assay type: cell-based; settings: Table 9; in µg/mL
OBSERVED PROPERTY: MIC P. aeruginosa H187
Answers are plain numbers.

CC(C)C[C@H](NC(=O)[C@H](C)NC(=O)[C@H](CC(C)C)NC(=O)[C@H](CCCCN)NC(=O)[C@H](C)NC(=O)[C@H](CC(C)C)NC(=O)[C@H](CCCCN)NC(=O)[C@H](CCCCN)NC(=O)[C@H](C)NC(=O)[C@H](CC(C)C)NC(=O)[C@H](CCCCN)NC(=O)[C@H](C)NC(=O)[C@H](CC(C)C)NC(=O)[C@H](CCCCN)NC(=O)[C@H](CCCCN)NC(=O)[C@H](C)NC(=O)[C@@H](N)Cc1ccccc1)C(=O)O = 8
CC(C)C[C@H](NC(=O)[C@H](C)NC(=O)[C@H](CC(C)C)NC(=O)[C@H](CCCCN)NC(=O)[C@H](C)NC(=O)[C@H](CC(C)C)NC(=O)[C@H](CCCCN)NC(=O)[C@H](CCCCN)NC(=O)[C@H](C)NC(=O)[C@H](CC(C)C)NC(=O)[C@H](CCCCN)NC(=O)[C@H](C)NC(=O)[C@H](CC(C)C)NC(=O)[C@H](CCCCN)NC(=O)[C@H](CCCCN)NC(=O)[C@H](C)NC(=O)[C@@H](N)Cc1ccccc1)C(N)=O = 8

Dear colleague, could you send me MIC P. aeruginosa H187 for each of the items below? Thanks.
1. CC(C)C[C@H](NC(=O)[C@H](C)NC(=O)[C@H](CC(C)C)NC(=O)[C@H](C)NC(=O)[C@H](CC(C)C)NC(=O)[C@H](CCCCN)NC(=O)[C@H](C)NC(=O)[C@H](CC(C)C)NC(=O)[C@H](CCCCN)NC(=O)[C@H](CCCCN)NC(=O)[C@H](C)NC(=O)[C@H](CC(C)C)NC(=O)[C@H](CCCCN)NC(=O)[C@H](C)NC(=O)[C@H](CC(C)C)NC(=O)[C@H](CCCCN)NC(=O)[C@H](CCCCN)NC(=O)[C@H](C)NC(=O)[C@@H](N)C(C)C)C(N)=O
2. CC(C)C[C@H](NC(=O)[C@H](C)NC(=O)[C@H](CC(C)C)NC(=O)[C@H](CCCCN)NC(=O)[C@H](C)NC(=O)[C@H](CC(C)C)NC(=O)[C@H](CCCCN)NC(=O)[C@H](CCCCN)NC(=O)[C@H](C)NC(=O)[C@H](CC(C)C)NC(=O)[C@H](CCCCN)NC(=O)[C@H](C)NC(=O)[C@H](CC(C)C)NC(=O)[C@H](CCCCN)NC(=O)[C@H](CCCCN)NC(=O)[C@H](C)NC(=O)[C@@H](N)C(C)C)C(N)=O

Key:
1: 8; 2: 4
